Target: human glucagon receptor (Homo sapiens, UniProt P47871)
Construct: expressed in transfected cells; host or cells: BHK (baby hamster kidney) cells
Sequence (P47871 26-477): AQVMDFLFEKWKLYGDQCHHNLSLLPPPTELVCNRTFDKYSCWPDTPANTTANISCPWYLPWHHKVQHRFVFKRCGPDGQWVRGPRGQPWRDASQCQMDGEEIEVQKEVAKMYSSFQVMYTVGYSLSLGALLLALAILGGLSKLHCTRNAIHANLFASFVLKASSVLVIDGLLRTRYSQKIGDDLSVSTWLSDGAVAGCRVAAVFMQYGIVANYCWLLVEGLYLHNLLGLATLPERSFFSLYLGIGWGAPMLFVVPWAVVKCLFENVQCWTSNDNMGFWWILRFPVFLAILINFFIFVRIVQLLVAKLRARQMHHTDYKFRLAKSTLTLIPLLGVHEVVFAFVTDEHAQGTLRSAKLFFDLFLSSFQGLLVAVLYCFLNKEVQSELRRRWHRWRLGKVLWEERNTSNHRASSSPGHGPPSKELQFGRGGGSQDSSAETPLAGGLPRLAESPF
Experiment: Glucagon Binding Assay (III)
Details: BHK cell membranes, WGA SPA beads, 125I-glucagon; read-out: Glu Bd Assay (III) IC50
pIC50: −log10 of the molar value.
Measured metric: pIC50

Worked cases, pIC50 given:
# Compound, Tested on, Measured metric, Value reported
data = [
    ("CCC(C)c1ccc(N(Cc2ccc(C(=O)Nc3nn[nH]n3)cc2)C(=O)Nc2ccc(S(C)(=O)=O)cc2)cc1 (centres unmarked)", "human glucagon receptor (Homo sapiens, UniProt P47871)", "pIC50", 5.83),
    ("CSc1ccc(NC(=O)N(Cc2ccc(C(=O)Nc3nn[nH]n3)cc2)c2ccc(C3CCCCC3)cc2)cc1", "human glucagon receptor (Homo sapiens, UniProt P47871)", "pIC50", 7.42),
    ("CC(C)(C)C1CCC(N(Cc2ccc(C(=O)NCCC(=O)O)cc2)C(=O)c2cccc(C(F)(F)F)c2)CC1 (centres unmarked)", "human glucagon receptor (Homo sapiens, UniProt P47871)", "pIC50", 6.18),
    ("CS(=O)(=O)c1cc(NC(=O)N(Cc2ccc(C(=O)Nc3nn[nH]n3)cc2)c2ccc(C3CCCCC3)cc2)cc(S(C)(=O)=O)c1", "human glucagon receptor (Homo sapiens, UniProt P47871)", "pIC50", 6.02),
]

(a) CC(C)(C)C1CCC(N(Cc2ccc(C(=O)Nc3nn[nH]n3)cc2)C(=O)/C=C/c2cccc3ccccc23)CC1 (centres unmarked)
(b) CC1CCC(N(Cc2ccc(C(=O)NCCC(=O)O)cc2)C(=O)Nc2ccc(OCc3ccccc3)cc2)CC1 (centres unmarked)
(c) O=C(Nc1nn[nH]n1)c1ccc(CN(C(=O)CCCc2ccccc2)c2ccc(C3CCCCC3)cc2)cc1
IN: Rank by pIC50 (largest to smallest). // respond by listing labels in the order requested
OUT: c, a, b
(c: 6.65, a: 6.26, b: 5.92)
